Test system: OVCAR-4
TEST METHOD NOTES: NCI tumour cell line growth inhibition, 48 h
Activity calls are given as the source filed them. Rule as the data show it: active = GI50 up to about 1.1 µM and inactive = higher.
Please go through the items and note down their GI50.

The compound O=C1OC(c2ccccc2)(c2ccccc2)CC1CN1CCOCC1 (stereo not given) showed GI50 equal to 23.1 µM (inactive)

The compound COc1ccccc1N1C(=O)CSC1c1c[nH]c2ccccc12 (stereo not given) showed GI50 equal to > 100 µM (inactive)

The compound CN(C)/C=N/c1cc(=O)n(C)c(=O)n1C showed GI50 equal to > 100 µM (inactive)

The compound COc1cccc2[nH]c(-c3ccccn3)nc12 showed GI50 equal to > 100 µM (inactive)

The compound Clc1ccc(-c2c(C3=NCCN3)nnn2-c2ccccc2)cc1 showed GI50 equal to > 100 µM (inactive)
